- assay overview: Multi-dose rat pharmacokinetic and tolerability study
- Type: in vivo, Sprague Dawley rats
- condition info: male, Sprague Dawley, in vivo, po, 20 mg/kg/day, AUC0-12
metric name: AUC(0-t) (ng·h/mL)

{"compound": "CC(/C=N/NC(=N)N)=N\\NC(=N)N [MGBG]", "reported": 773}

====

- assay overview: Multi-dose rat pharmacokinetic and tolerability study
- Assay type: in vivo, Sprague Dawley rats
- condition info: male, Sprague Dawley, in vivo, po, 40 mg/kg/day, AUC0-24

{"smiles str": "CC(/C=N/NC(=N)N)=N\\NC(=N)N", "endpoint unit": "ng·h/mL", "AUC(0-t)": 2980}

====

- assay overview: Rhesus macaque single-dose pharmacokinetics
- Format: in vivo, rhesus monkeys
- condition info: male, rhesus monkey, single bolus IV 1 mg/kg, plasma, mean
- Protocol: Two groups of three male rhesus monkeys were fasted overnight before being administered the test article, MGBG, as either a single bolus intravenous dose of 1 mg/kg (Group 1) or as a single oral gavage dose of 10 mg/kg (Group 2). Dose formulation analysis verified administered dose solutions as within 14% of targeted concentrations of 1 and 10 mg/kg for Groups 1 and 2, respectively. […]

{"compound": "CC(/C=N/NC(=N)N)=N\\NC(=N)N [MGBG]", "AUC [ng·h/mL]": 1660}

====

- assay overview: Rhesus macaque single-dose pharmacokinetics
- Assay type: in vivo, rhesus monkeys
- condition info: male, rhesus monkey, plasma, single bolus IV 1 mg/kg, mean
metric name: half-life

{"smiles str": "CC(/C=N/NC(=N)N)=N\\NC(=N)N", "reported": "1850 min"}

====

- assay overview: in vivo
- Parameters: species or system beagle dogs
- condition info: male, beagle, dog, po, 10 mg/kg

{"compound": "CC(/C=N/NC(=N)N)=N\\NC(=N)N [MGBG]", "Tmax": "1 h"}

====

- assay overview: Mouse single-dose pharmacokinetics
- Format: in vivo, DBA/1 mice
- condition info: male, DBA/1, single bolus IV 1 mg/kg, plasma, mean
metric name: Cmax (ng/mL)

{"compound": "CC(/C=N/NC(=N)N)=N\\NC(=N)N [MGBG]", "metric name": "Cmax", "reported": 181}

====

- assay overview: Multi-dose rat pharmacokinetic and tolerability study
- Format: in vivo, Sprague Dawley rats
- condition info: male, Sprague Dawley, in vivo, po, 60 mg/kg/day, AUC0-12

{"smiles str": "CC(/C=N/NC(=N)N)=N\\NC(=N)N", "AUC(0-t) / ng·h/mL": 2170}

====

- assay overview: Multi-dose rat pharmacokinetic and tolerability study
- Assay type: in vivo, Sprague Dawley rats
- condition info: male, Sprague Dawley, in vivo, po, 20 mg/kg/day, Cmax
metric name: Cmax (ng/mL)

{"smiles str": "CC(/C=N/NC(=N)N)=N\\NC(=N)N", "metric name": "Cmax", "endpoint unit": "ng/mL", "reported": 124}

====

- assay overview: Rat single-dose pharmacokinetics
- Assay type: in vivo, Sprague Dawley rats
- condition info: male, Sprague Dawley, single bolus IV 1 mg/kg, plasma, mean

{"smiles str": "CC(/C=N/NC(=N)N)=N\\NC(=N)N", "Cmax / ng/mL": 684}

====

- assay overview: Multi-dose rat pharmacokinetic and tolerability study
- Assay type: in vivo, Sprague Dawley rats
- condition info: male, Sprague Dawley, in vivo, po, 60 mg/kg/day

{"smiles str": "CC(/C=N/NC(=N)N)=N\\NC(=N)N", "endpoint unit": "mL/min/kg", "CL/F": 35.8}

These entries and their values trace back to patent US8258186B2.
